study system: T1, human CD16a V176 variant, biotinylated (human, UniProt P08637 17-208, N-terminally biotinylated in-house)
T1 construct: supplier is told for the AlphaScreen assay only; also called V Variant; FcγRIIIA V variant
T1 sequence (P08637 other isoform, or with tags, fused parts or gaps mutant limits assumed): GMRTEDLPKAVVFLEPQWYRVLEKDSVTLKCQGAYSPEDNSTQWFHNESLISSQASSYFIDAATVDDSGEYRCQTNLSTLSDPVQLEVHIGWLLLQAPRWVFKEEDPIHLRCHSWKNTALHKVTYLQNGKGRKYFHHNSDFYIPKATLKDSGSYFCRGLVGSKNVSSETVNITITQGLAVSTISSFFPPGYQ
assay explanation: SPR
Bridge positions count the residues as written; N and C are the ends. Square brackets hold non-standard residues; d marks the D form. Primed or numbered codes have the meaning given here. Ends that are not written are not given here. TBMT″ = 2,4,6-tris(bromomethyl)-s-triazine, scaffold on three Cys
test readout: log10 of Kd (log10 of the value in nM)
Base-10 log of Kd, unit nM.

// below: answered binders
ACRWXFSEPCGAWCA (CiRW[4FPhe]FSEPCiiGAWCiii, scaffold TBMT) [BCY20379] | 3.16
ACRWHXSEPCGAWCA (CiRWH[HyP]SEPCiiGAWCiii, scaffold TBMT) [BCY20383] | 2.31
ACVGLXELGPCSDLCA (CiVGL[Nle]ELGPCiiSDLCiii, scaffold TBMT) [BCY16511] | 3.70
ACRWYFSEXCAAWCA (CiRWYFSE[Aze]Cii[dA]AWCiii, scaffold TBMT) [BCY20394] | 3.00
ACRWHFXEPCGAWCA (CiRWHF[HSer]EPCiiGAWCiii, scaffold TBMT) [BCY20388] | 3.03

Turning to the following binder.
Given item ACRWHFSEPC[dA]AWCA-NH2 (linker 2-10-14 via TBMT″ (inferred), scaffold TBMT) [BCY20392] , the value recorded as its log10 of Kd is 2.59
